I'd appreciate it if you could supply GSPT1 Degradation Ymin values for the items below.
# systemUnderTest: ePL-tagged GSPT1 (Homo sapiens, UniProt P15170+Q96SW2)
# Construct: expressed in transfected cells; host or cells: DF15 multiple myeloma cells
# Sequence (P15170 whole entry): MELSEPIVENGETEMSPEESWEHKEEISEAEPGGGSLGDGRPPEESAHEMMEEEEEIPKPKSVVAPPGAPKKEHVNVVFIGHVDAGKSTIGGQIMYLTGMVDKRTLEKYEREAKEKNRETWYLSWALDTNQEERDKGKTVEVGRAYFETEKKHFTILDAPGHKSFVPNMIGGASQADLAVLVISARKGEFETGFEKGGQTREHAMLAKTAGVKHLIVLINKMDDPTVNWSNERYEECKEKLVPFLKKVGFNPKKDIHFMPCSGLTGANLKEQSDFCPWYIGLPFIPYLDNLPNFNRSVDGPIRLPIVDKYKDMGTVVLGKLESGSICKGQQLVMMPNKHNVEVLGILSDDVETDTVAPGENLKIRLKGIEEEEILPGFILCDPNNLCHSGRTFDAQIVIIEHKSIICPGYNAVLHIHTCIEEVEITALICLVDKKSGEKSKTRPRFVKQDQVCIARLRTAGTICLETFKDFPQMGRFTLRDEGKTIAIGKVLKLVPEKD
# Sequence (Q96SW2 whole entry): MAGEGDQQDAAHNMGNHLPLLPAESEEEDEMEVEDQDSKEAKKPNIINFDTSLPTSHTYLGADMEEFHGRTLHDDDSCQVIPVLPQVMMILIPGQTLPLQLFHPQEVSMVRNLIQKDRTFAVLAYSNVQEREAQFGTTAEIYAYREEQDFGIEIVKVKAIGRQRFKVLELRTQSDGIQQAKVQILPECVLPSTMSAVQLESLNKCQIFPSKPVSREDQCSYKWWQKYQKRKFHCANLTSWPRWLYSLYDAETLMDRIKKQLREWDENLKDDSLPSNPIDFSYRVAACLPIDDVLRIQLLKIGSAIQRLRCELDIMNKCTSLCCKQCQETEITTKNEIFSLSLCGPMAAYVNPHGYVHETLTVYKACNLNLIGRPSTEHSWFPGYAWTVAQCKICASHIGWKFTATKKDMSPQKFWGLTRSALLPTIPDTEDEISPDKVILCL
# Sequence (Q16531 whole entry partner): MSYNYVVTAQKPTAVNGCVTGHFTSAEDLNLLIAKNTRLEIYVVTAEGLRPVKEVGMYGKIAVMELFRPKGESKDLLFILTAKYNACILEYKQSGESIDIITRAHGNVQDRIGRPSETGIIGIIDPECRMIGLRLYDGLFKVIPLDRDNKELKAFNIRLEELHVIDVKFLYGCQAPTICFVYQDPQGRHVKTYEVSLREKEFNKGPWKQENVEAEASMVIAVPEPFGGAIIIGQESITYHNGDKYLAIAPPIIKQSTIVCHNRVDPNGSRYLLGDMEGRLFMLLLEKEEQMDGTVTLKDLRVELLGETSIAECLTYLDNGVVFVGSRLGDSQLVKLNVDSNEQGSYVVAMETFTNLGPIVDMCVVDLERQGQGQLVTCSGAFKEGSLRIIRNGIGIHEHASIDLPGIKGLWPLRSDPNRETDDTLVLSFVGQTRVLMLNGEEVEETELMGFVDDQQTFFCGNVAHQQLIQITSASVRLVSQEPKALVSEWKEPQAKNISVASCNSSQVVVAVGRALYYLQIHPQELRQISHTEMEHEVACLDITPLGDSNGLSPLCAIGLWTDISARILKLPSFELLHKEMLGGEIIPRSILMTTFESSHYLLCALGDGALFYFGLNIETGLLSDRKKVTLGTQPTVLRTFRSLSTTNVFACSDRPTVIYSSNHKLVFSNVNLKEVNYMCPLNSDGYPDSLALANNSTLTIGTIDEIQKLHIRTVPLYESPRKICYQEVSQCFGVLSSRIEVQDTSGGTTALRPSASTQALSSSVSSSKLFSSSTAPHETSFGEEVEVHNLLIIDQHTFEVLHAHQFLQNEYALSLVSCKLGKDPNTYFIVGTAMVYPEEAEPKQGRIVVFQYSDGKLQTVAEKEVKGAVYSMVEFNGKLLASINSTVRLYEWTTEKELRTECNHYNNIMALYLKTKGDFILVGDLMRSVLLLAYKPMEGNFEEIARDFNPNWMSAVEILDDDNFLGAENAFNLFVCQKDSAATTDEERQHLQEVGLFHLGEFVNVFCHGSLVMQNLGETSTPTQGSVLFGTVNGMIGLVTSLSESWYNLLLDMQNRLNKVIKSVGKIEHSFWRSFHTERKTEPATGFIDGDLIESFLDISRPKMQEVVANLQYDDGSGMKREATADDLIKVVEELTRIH
# experimentalDetails: GSPT1 DiscoverX Degradation Assay
# Type: cell-based
# measurementSetup: DF15 multiple myeloma cells expressing ePL-tagged GSPT1; twenty hours; minimum of percent of control curve (Ataluren control Y constant=0, DMSO control = Y max)
Answers are plain numbers.

Some entries whose results are on file:
O=C1CCC(N2Cc3cc(CNC(=O)Nc4ccc(OCc5ccccc5O)cc4)ccc3C2=O)C(=O)N1 (stereo not shown) [Example 9]: 3.50
CCCc1cc(CN)ccc1COc1ccc(NC(=O)NCc2ccc3c(c2)CN(C2CCC(=O)NC2=O)C3=O)cc1 (stereo not shown) [Example 22]: 9.46
NCc1cccc(COc2ccc(NC(=O)NCc3ccc4c(c3)CN(C3CCC(=O)NC3=O)C4=O)cc2)c1 (stereo not shown) [Example 4]: 6.80
NCc1ccc(COc2ccc(NC(=O)NCc3ccc4c(c3)CN(C3CCC(=O)NC3=O)C4=O)cc2F)cc1 (stereo not shown) [Example 18]: 54.45

Give GSPT1 Degradation Ymin for each of the items listed below.
1. NCc1cnc(COc2ccc(NC(=O)NCc3ccc4c(c3)CN(C3CCC(=O)NC3=O)C4=O)cc2)nc1 (stereo not shown) [Example 15]
2. O=C1CCC(N2Cc3cc(CNC(=O)Nc4ccc(OCc5ccccc5CO)cc4)ccc3C2=O)C(=O)N1 (stereo not shown) [Example 8]
3. NC[C@H]1CC[C@H](COc2ccc(NC(=O)NCc3ccc4c(c3)CN(C3CCC(=O)NC3=O)C4=O)cc2)CC1 (stereo partly shown) [Example 34]

1: 3.10; 2: 4.00; 3: 7.47

----------
# systemUnderTest: ePL-tagged GSPT1 (Homo sapiens, UniProt P15170+Q96SW2)
# Construct: expressed in transfected cells; host or cells: DF15 multiple myeloma cells
# experimentalDetails: GSPT1 DiscoverX Degradation Assay
# Assay type: cell-based
# measurementSetup: DF15 multiple myeloma cells expressing ePL-tagged GSPT1; twenty hours; minimum of percent of control curve (Ataluren control Y constant=0, DMSO control = Y max)
I'd appreciate it if you could supply GSPT1 Degradation Ymin values for the items below.
One number for each entry.

Some entries whose results are on file:
NCc1ccc(COc2ccc(NC(=O)NCc3ccc4c(c3)CN(C3CCC(=O)NC3=O)C4=O)cc2)c(OC2COC2)c1 (stereo not shown): 6.92
NCc1ccc(COc2ccc(NC(=O)NCc3ccc4c(c3)CN(C3CCC(=O)NC3=O)C4=O)cc2)c(F)c1 (stereo not shown): 6.71
CCc1cc(CN)ccc1COc1ccc(NC(=O)NCc2ccc3c(c2)CN(C2CCC(=O)NC2=O)C3=O)cc1 (stereo not shown): 10.44
NCc1ccc(COc2ccc(NC(=O)NCc3ccc4c(c3)CN(C3CCC(=O)NC3=O)C4=O)cn2)cc1 (stereo not shown): 7.50
Nc1ccccc1COc1ccc(NC(=O)NCc2ccc3c(c2)CN(C2CCC(=O)NC2=O)C3=O)cc1 (stereo not shown): 10.20

Give GSPT1 Degradation Ymin for each of the items listed below.
1. O=C1CCC(N2Cc3cc(CNC(=O)Nc4ccc(OCc5cccc(CO)c5)cc4)ccc3C2=O)C(=O)N1 (stereo not shown)
2. Cc1cc(CN)ccc1COc1ccc(NC(=O)NCc2ccc3c(c2)CN(C2CCC(=O)NC2=O)C3=O)cc1 (stereo not shown)
3. CC(C)Oc1cc(CN)ccc1COc1ccc(NC(=O)NCc2ccc3c(c2)CN(C2CCC(=O)NC2=O)C3=O)cc1 (stereo not shown)
4. NCc1ccc(COc2ccc(NC(=O)NCc3ccc4c(c3)CN(C3CCC(=O)NC3=O)C4=O)cc2)nn1 (stereo not shown)
5. CC(C)c1cc(CN)ccc1COc1ccc(NC(=O)NCc2ccc3c(c2)CN(C2CCC(=O)NC2=O)C3=O)cc1 (stereo not shown)
6. NCc1ccc(CO[C@H]2CC[C@H](NC(=O)NCc3ccc4c(c3)CN(C3CCC(=O)NC3=O)C4=O)CC2)cc1 (stereo partly shown)
7. Cc1cc(NC(=O)NCc2ccc3c(c2)CN(C2CCC(=O)NC2=O)C3=O)ccc1OCc1ccc(CN)cc1 (stereo not shown)

[4.00, 5.39, 10.04, 12.67, 10.86, 17.59, 15.91]

Hello, please tell me recorded GSPT1 Degradation Ymin for this one: NCc1ccccc1COc1ccc(NC(=O)NCc2ccc3c(c2)CN(C2CCC(=O)NC2=O)C3=O)cc1 (stereo not shown)
7.30
